# Procedure summary: NCI Yeast Anticancer Drug Screen. Data for the rad50 strain (AID 155)
# Measurement setup: S. cerevisiae rad50 strain growth inhibition; at 100.0 µM
This is part of a sample that, as a whole, favours compounds with a hit. Of some 79,000 tested, about 15% had one in any assay. Activity calls are given as the source filed them. No stated cut-off is given here; in the data, active means growth inhibition above about 70%; inactive means the rest.
Write down one outcome, taken from active, inactive

In [3]: df
Out[3]:
                                   compound     group
0  O=C1NC(=O)C2C3C=CC(C3)C12 (configuration not stated)  inactive
1      BrCC[P+](c1ccccc1)(c1ccccc1)c1ccccc1    active
2             O=C(/C=C/c1cccc(Br)c1)c1cccs1    active
3     Cc1ccc(NC(=O)/C(Cl)=C(\Cl)C(=O)O)cc1C    active
4  CCCN(CCC)CC(O)c1cc(-c2ccc(Cl)cc2)nc2c(C)c(Cl)ccc12 (configuration not stated)    active
5  CC(=O)Oc1ccc2c(c1)Cc1cc(N=C3C=CC(=O)O3)ccc1-2    active

## Task Per the assay record, what outcome was assigned to O=[N+]([O-])c1cccc2nc3ccccc3c(NCCCN3CCOCC3)c12 ?
## Result active

## Task Per the assay record, what outcome was assigned to CCC(C)COC(=O)c1ccc(N=Cc2ccc(C=Nc3ccc(C(=O)OCC(C)CC)cc3)cc2)cc1 (configuration not stated) ?
## Result inactive
